B1: HEEH_KT_rd6_0007 (parent)
chain: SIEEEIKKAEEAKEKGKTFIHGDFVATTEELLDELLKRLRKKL

variants of: B1; test: folding stability dG (cDNA display proteolysis); higher = more stable; settings: PBS, room temperature
Can you tell me folding stability dG for the items I'm about to list?
Record the result as number plus unit.

>>> result("F24T")
"0.846 kcal/mol"
>>> result("G16S")
"0.957 kcal/mol"
>>> result("E30Y")
"1.15 kcal/mol"
>>> result("S1M")
"1.16 kcal/mol"
>>> result("E34Q")
"1.17 kcal/mol"

Provide each entry's folding stability dG from the list below.
1. D23H
2. L35W
3. A9K
4. K41V

(A)
1. 1.02 kcal/mol
2. 0.882 kcal/mol
3. 0.705 kcal/mol
4. 1.07 kcal/mol

Provide each entry's folding stability dG from the list below.
1. F19D
2. K37G
3. D33I
4. F19Q

(A)
1. 0.713 kcal/mol
2. 0.864 kcal/mol
3. 1.35 kcal/mol
4. 0.715 kcal/mol

Provide each entry's folding stability dG from the list below.
1. A12V
2. L31S
3. S1E
4. T27A
5. D33G
6. F24W
7. E11M
8. G22W

(A)
1. 0.505 kcal/mol
2. 0.841 kcal/mol
3. 1.11 kcal/mol
4. 1.27 kcal/mol
5. 0.853 kcal/mol
6. 1.22 kcal/mol
7. 1.05 kcal/mol
8. 1.53 kcal/mol

Provide each entry's folding stability dG from the list below.
1. I2H
2. K7Q

(A)
1. 0.643 kcal/mol
2. 1.25 kcal/mol

Provide each entry's folding stability dG from the list below.
1. K8R
2. E5V
3. H21L
4. L35H
5. T27D
6. L31N
7. I6H

(A)
1: 1.42 kcal/mol; 2: 2.13 kcal/mol; 3: 1.29 kcal/mol; 4: 0.458 kcal/mol; 5: 2.16 kcal/mol; 6: 0.715 kcal/mol; 7: 0.603 kcal/mol
